target: HLA-DRB1*04:01 (Homo sapiens, UniProt P01903+P01911, A100K/A169T/F76Y/I96L/K127E/L162R/M171V/N62H/P40V/Q125Y/R42H/S133A/S149N/S66Y/V115G/V209L/W38E); construct: EBV transformed homozygous cell lines were used as sources of MHC molecules; endogenous in cells; host or cells: EBV transformed homozygous cell lines; assay: HLA class II peptide binding, inhibition of radiolabeled peptide binding to purified MHC; conditions: wild-type (unmodified Arg) 15-mer peptide; purified HLA-DRB1*04:01; read-out: DRB1*04:01 binding capacity, WT peptide (IC50 nM)
Ends that are not written are not given here.
measurementKind: IC50 (nM)
Hi! Could you send only the number? It should be in nM, unit omitted.

These recorded examples may help you get a feel for the data.
INSERT INTO results (residues, measurementkind, recordedmeasurement) VALUES
  ('AAGVKGDRGETGAVG [Collagen 1051 WT]', 'IC50', 25200),
  ('GPQGARGQPGVMGFP [Collagen 591 WT]', 'IC50', 2570),
  ('GEESRISLPLPNFSS [Vimentin 406 WT]', 'IC50', 7570),
  ('TLLIKTVETRDGQVI [Vimentin 441 WT]', 'IC50', 6020),
  ('EIATYRKLLEGEESR [Vimentin 396 WT]', 'IC50', 3520);

Now consider the entry below.
Form field IC50, entry MALDIEIATYRKLLE [Vimentin 391 WT] : 5590

* * *

molecular target: HLA-DRB1*04:01 (Homo sapiens, UniProt P01903+P01911, A100K/A169T/F76Y/I96L/K127E/L162R/M171V/N62H/P40V/Q125Y/R42H/S133A/S149N/S66Y/V115G/V209L/W38E); construct: EBV transformed homozygous cell lines were used as sources of MHC molecules; endogenous in cells; host or cells: EBV transformed homozygous cell lines; assay: HLA class II peptide binding, inhibition of radiolabeled peptide binding to purified MHC; details: citrullinated 15-mer (X); purified MHC, inhibition of radiolabeled peptide binding; dash = IC50 >40,000 nM; read-out: DRB1*04:01 binding capacity, Cit peptide (IC50 nM)
Square brackets hold non-standard residues; d marks the D form. Peptide text beside a SMILES is read from it. Cit = NC(=O)NCCC[C@H](N)C(=O)O
measurementKind: IC50

Form field IC50, entry CC(C)C[C@H](NC(=O)[C@H](C)NC(=O)[C@H](CC(=O)O)NC(=O)[C@H](CC(N)=O)NC(=O)[C@H](CC(N)=O)NC(=O)[C@H](CCCNC(=N)N)NC(=O)[C@H](CC(N)=O)NC(=O)[C@H](C)NC(=O)[C@H](C)N)C(=O)N[C@@H](CCCNC(N)=O)C(=O)N[C@@H](CCC(N)=O)C(=O)N[C@@H](C)C(=O)N[C@@H](CCCCN)C(=O)N[C@@H](CCC(N)=O)C(=O)N[C@@H](CCC(=O)O)C(=O)O [AANRNNDALXQAKQE] (H-AANRNNDAL[Cit]QAKQE-OH; N-terminus and C-terminus assumed) : > 40000 nM

* * *

molecular target: HLA-DRB1*04:01 (Homo sapiens, UniProt P01903+P01911, A100K/A169T/F76Y/I96L/K127E/L162R/M171V/N62H/P40V/Q125Y/R42H/S133A/S149N/S66Y/V115G/V209L/W38E); construct: EBV transformed homozygous cell lines were used as sources of MHC molecules; endogenous in cells; host or cells: EBV transformed homozygous cell lines; test: HLA class II peptide binding, inhibition of radiolabeled peptide binding to purified MHC; conditions: citrullinated peptide as listed (X at Cit position); read-out: DRB1*04:01 binding capacity Cit peptide (IC50 nM)
Square brackets hold non-standard residues; d marks the D form. Peptide text beside a SMILES is read from it. Cit = NC(=O)NCCC[C@H](N)C(=O)O
measurementKind: IC50 (nM)
Hi! Could you send only the number? It should be in nM, unit omitted.

These recorded examples may help you get a feel for the data.
INSERT INTO results (compound, unit, recordedmeasurement) VALUES
  ('CC[C@H](C)[C@H](NC(=O)[C@H](CCC(=O)O)NC(=O)[C@@H](NC(=O)[C@H](CC(=O)O)NC(=O)[C@H](CC(N)=O)NC(=O)[C@@H](N)CO)C(C)C)C(=O)N[C@@H](CCCNC(N)=O)C(=O)N[C@@H](C)C(=O)N[C@@H](CCC(=O)O)C(=O)NCC(=O)N[C@@H](CC(N)=O)C(=O)N[C@@H](CO)C(=O)N[C@@H](CCCNC(=N)N)C(=O)N[C@@H](Cc1ccccc1)C(=O)N[C@H](C(=O)O)[C@@H](C)O [SNDVEIXAEGNSRFT] (H-SNDVEI[Cit]AEGNSRFT-OH)', 'nM', 929),
  ('CSCC[C@H](NC(=O)[C@H](CCC(N)=O)NC(=O)[C@@H](NC(=O)[C@H](CC(N)=O)NC(=O)[C@H](C)NC(=O)[C@@H](NC(=O)[C@H](CC(N)=O)NC(=O)[C@@H]1CCCN1C(=O)[C@H](C)NC(=O)[C@@H](N)CC(C)C)[C@@H](C)O)C(C)C)C(=O)N[C@H](C(=O)N[C@@H](Cc1ccccc1)C(=O)N[C@@H](CC(C)C)C(=O)N[C@@H](CCCNC(N)=O)C(=O)N[C@@H](CC(C)C)C(=O)O)[C@@H](C)O [LAPNTANVQMTFLXL] (H-LAPNTANVQMTFL[Cit]L-OH)', 'nM', 17400),
  ('CC[C@H](C)[C@H](N)C(=O)N[C@@H](CCCNC(=N)N)C(=O)N[C@@H](C)C(=O)N[C@@H](CCC(=O)O)C(=O)NCC(=O)N[C@@H](CC(N)=O)C(=O)N[C@@H](CO)C(=O)N[C@@H](CCCNC(N)=O)C(=O)N[C@@H](Cc1ccccc1)C(=O)N[C@H](C(=O)N[C@@H](Cc1ccc(O)cc1)C(=O)N[C@H](C(=O)N[C@@H](C)C(=O)N[C@@H](CC(C)C)C(=O)N[C@@H](CCCCN)C(=O)O)[C@@H](C)O)[C@@H](C)O [IRAEGNSXFTYTALK] (H-IRAEGNS[Cit]FTYTALK-OH)', 'nM', 849);

Form field IC50, entry CC[C@H](C)[C@H](NC(=O)[C@@H](NC(=O)[C@@H](NC(=O)[C@H](CCCCN)NC(=O)CN)[C@@H](C)O)C(C)C)C(=O)N[C@@H](CCC(=O)O)C(=O)N[C@@H](Cc1ccc(O)cc1)C(=O)N[C@@H](CCCNC(=N)N)C(=O)N[C@@H](CO)C(=O)N[C@@H](CCC(N)=O)C(=O)N[C@@H](CCCCN)C(=O)N[C@H](C(=O)N[C@@H](CO)C(=O)N[C@@H](CCCNC(N)=O)C(=O)N[C@@H](CC(C)C)C(=O)O)[C@@H](C)O [GKTVIEYRSQKTSXL] (H-GKTVIEYRSQKTS[Cit]L-OH) : 138

Form field IC50, entry CSCC[C@H](NC(=O)[C@H](CCC(N)=O)NC(=O)[C@@H](NC(=O)[C@H](CC(N)=O)NC(=O)[C@H](C)N)C(C)C)C(=O)N[C@H](C(=O)N[C@@H](Cc1ccccc1)C(=O)N[C@@H](CC(C)C)C(=O)N[C@@H](CCCNC(N)=O)C(=O)N[C@@H](CC(C)C)C(=O)N[C@@H](CC(C)C)C(=O)N[C@@H](CO)C(=O)N[C@H](C(=O)N[C@@H](CCC(=O)O)C(=O)NCC(=O)O)[C@@H](C)O)[C@@H](C)O [ANVQMTFLXLLSTEG] (H-ANVQMTFL[Cit]LLSTEG-OH) : 1060

Form field IC50, entry CC[C@H](C)[C@H](NC(=O)[C@H](CCC(N)=O)NC(=O)[C@H](CC(N)=O)NC(=O)[C@H](CC(N)=O)NC(=O)[C@H](CC(C)C)NC(=O)[C@@H](N)CO)C(=O)N[C@@H](CCC(=O)O)C(=O)N[C@@H](CO)C(=O)N[C@H](C(=O)N[C@@H](CCCNC(N)=O)C(=O)N[C@@H](CO)C(=O)N1CCC[C@H]1C(=O)N[C@@H](CCC(=O)O)C(=O)NCC(=O)N[C@@H](CO)C(=O)O)[C@@H](C)CC [SLNNQIESIXSPEGS] (H-SLNNQIESI[Cit]SPEGS-OH) : 18

* * *

IC50 for assorted compounds
molecular target: HLA-DRB1*04:01 (Homo sapiens, UniProt P01903+P01911, A100K/A169T/F76Y/I96L/K127E/L162R/M171V/N62H/P40V/Q125Y/R42H/S133A/S149N/S66Y/V115G/V209L/W38E); construct: EBV transformed homozygous cell lines were used as sources of MHC molecules; endogenous in cells; host or cells: EBV transformed homozygous cell lines; assay: HLA class II peptide binding, inhibition of radiolabeled peptide binding to purified MHC; conditions: citrullinated 15-mer (X); purified MHC, inhibition of radiolabeled peptide binding; dash = IC50 >40,000 nM; read-out: DRB1*04:01 binding capacity, Cit peptide (IC50 nM)
Square brackets hold non-standard residues; d marks the D form. Peptide text beside a SMILES is read from it. Cit = NC(=O)NCCC[C@H](N)C(=O)O
Hi! Could you send only the number? It should be in nM, unit omitted.

These recorded examples may help you get a feel for the data.
INSERT INTO results (compound, measurementkind, unit, recordedmeasurement) VALUES
  ('CC[C@H](C)[C@H](NC(=O)[C@H](CC(=O)O)NC(=O)[C@H](CCC(=O)O)NC(=O)[C@H](C)NC(=O)[C@H](CC(C)C)NC(=O)[C@H](CC(N)=O)NC(=O)[C@H](CC(=O)O)NC(=O)[C@H](CCCNC(N)=O)NC(=O)[C@H](CCC(=O)O)NC(=O)[C@@H](NC(=O)[C@H](CCC(=O)O)NC(=O)[C@@H](N)C(C)C)C(C)C)C(=O)N[C@@H](CCSC)C(=O)N[C@@H](CCCNC(=N)N)C(=O)N[C@@H](CC(C)C)C(=O)O [VEVEXDNLAEDIMRL] (H-VEVE[Cit]DNLAEDIMRL-OH)', 'IC50', 'nM', 16300),
  ('CC(C)C[C@H](NC(=O)[C@H](CO)NC(=O)[C@H](C)NC(=O)[C@H](CC(N)=O)NC(=O)[C@H](CC(=O)O)NC(=O)[C@@H](NC(=O)[C@H](CC(=O)O)NC(=O)[C@H](CCC(N)=O)NC(=O)[C@H](CCCNC(N)=O)NC(=O)[C@H](Cc1ccccc1)NC(=O)[C@H](CO)NC(=O)[C@H](CCC(N)=O)NC(=O)[C@H](CC(C)C)NC(=O)[C@@H](NC(=O)[C@@H](N)CC(N)=O)[C@@H](C)O)C(C)C)C(=O)O [NTLQSFXQDVDNASL] (H-NTLQSF[Cit]QDVDNASL-OH)', 'IC50', 'nM', 702),
  ('CSCC[C@H](NC(=O)[C@H](CCCNC(N)=O)NC(=O)[C@H](CCCNC(=N)N)NC(=O)[C@@H](N)Cc1ccc(O)cc1)C(=O)N[C@@H](Cc1ccccc1)C(=O)NCC(=O)NCC(=O)N1CCC[C@H]1C(=O)NCC(=O)N[C@H](C(=O)N[C@@H](C)C(=O)N[C@@H](CO)C(=O)N[C@@H](CCCNC(=N)N)C(=O)N1CCC[C@H]1C(=O)N[C@@H](CO)C(=O)O)[C@@H](C)O [YRXMFGGPGTASRPS] (H-YR[Cit]MFGGPGTASRPS-OH)', 'IC50', 'nM', 15800);

Now consider the entry below.
Form field IC50, entry CC(C)C[C@H](NC(=O)[C@H](CC(=O)O)NC(=O)[C@H](CC(C)C)NC(=O)[C@H](CCCNC(=N)N)NC(=O)[C@H](C)NC(=O)[C@H](CC(C)C)NC(=O)[C@H](CO)NC(=O)[C@H](C)NC(=O)[C@H](CC(N)=O)NC(=O)[C@H](CC(=O)O)NC(=O)[C@@H](NC(=O)[C@H](CC(=O)O)NC(=O)[C@H](CCC(N)=O)NC(=O)[C@H](CCCNC(N)=O)NC(=O)[C@@H](N)Cc1ccccc1)C(C)C)C(=O)O [FXQDVDNASLARLDL] (H-F[Cit]QDVDNASLARLDL-OH) : 280
